- experiment description: soluble on expression in E. coli; label from the status in PepcDB or PDB records

polymer sequence	soluble on expression in E. coli
QVVMPRPPALCQGCGHRDVYDALNKVAAEYPDARIFGDIGCYTLGALPPFRAIDSCVDMGASITMAKGASDAGVFPAIAVIGDSTFTHSGMTGLLDAVNDRANITVVISDNLTTAMTGGQDSAGTNKFEAICLGLGVEPEHVRVVVPLPKNMEEITRTIREEIEYKGVSVIIPRRECIQTLNRKLRQKKADKA	not soluble
MANGKSKNTKKDGVDKKKTSKTKKKSNLSISKSQTSVDMNEKDKSKEAKEAKELKEKKAKEEAEKKVVATPKKDASKDQAKKEEDPNKQNEPSGMDVLVKEDGKKTKMDDGYEDFGPGAGAAQ	not soluble
GMVYVDPDRFDELVAEALDGIPEEFARAMRNVAVFVEDEPDDPELLGLYVGIPLTERTTAYGGVLPDRIIIYRNTICALCETESEVIDEVRKTVVHEIAHHFGIDDERLHELGY	soluble
IVPDAQDLGKSYGIRPSFIIAQAALDSDFGEKILANKYHNLFGLLAEPGTPSITLNDSSTGKKQEKQFTHYKSWKYSMYDYLAHIKSGATGKKDSYTIMVSVKNPKTLVQKLQDSGFDNDKKYAKKMTEIIDLYDL	not soluble
MGSDKIHHHHHHMVPARHCHVAVFDQAIVALDIRRSRYFLYDAACARDFADHYLDFKPIDAPRALKPLIADRILVAESPAAARSRIADYRGWSFDAFDSGIWGSRVLGKRDAARFEWLPFWRIVRSAASLKMRGFHALAALDQLDARGAPARGDDASHTVERLLRASIWSPFRITCVQMSLALATHLRRQNVPAQLVIGVRPMPFVAHAWVEVDGRVCGDEPDLKKSYGEIYRTPRCDASAAPFGLAA	not soluble
MGSDKIHHHHHHMELQLMQWQVGDLPFFYRCQPQPSNAPYGLPDSLPFCLEFDSALGLIRQSPNTQVEAALERCYQHGSTISGMMDSGGIGQQYARDFLDFIAHHETDLTGKRVLEIGCGTGYLLSLLKQKGADVLGIEPGAQGQGGQQRHGVPIIDGFFPHPKAEGKFDLIVAYAVLEHIGEPQGFLEKIADSLAPDGVAYIAVPDCAPYIENGDISCLLHEHWSYFDASSLQRLLEVSGFAAAVQPAGFGGSIYARAVRVSHKTKPVNDEIDLAGNGFERFRSLALGAGQRLERFLAGPGQAGIYVPGRMINLLASLDSVDLAQVRLFDDNEALTGLYFPGMPNPIEDFSGLVERPPARLLIATKSFHFQIADRIEHASVEVPLLAWSDLFLVAAPK	not soluble
MSLAPNPYLTGRTLNIAHQGGEALWPSNTLTAYRGAVALGVDLLEMDLHATRDGALVLSHDATLDRLTDTQGRIADLTLEQVLRADAGYTLTPAGGSGFPFRGQGVQVAQLKDVLREFPNTPLIIELKQASPSIAAPFCAELRRAGATGRVIAASFSDAALNEFRRLCPEVMTSMTERELRPLVLLSKVGLSALAPTPGQVAQVPVRSGGIEIVTPAFVRALHARGVAVQVWTIDDEAEMRRLVQMGVDGVITNRPDLLKKVLAEREGHHHHHH	not soluble
KLRQWLIDQIDSGKYPGLVWENEEKSIFRIPWKHAGKQDYNREEDAALFKAWALFKGKFREGIDKPDPPTWKTRLRCALNKSNDFEELVERSQLDISDPYKVYRIVPE	soluble
MGSDKIHHHHHHMTVTILHEANSIDTDYVKRARLISDKFLELIILPTEQCNFRCTYCYEDFSIGRMQPETIAGIKAILDKRCPNLSYLNLAWFGGEPLVAKNIVLDISEYALSLVSKYPHLHYSSNMTTNGYLLDLNTASALANVGVTKYQISLDGPREIHNQSRIRADGKSTFERIWTNLLAIRDSSLPIYINLRLHFTIDTVKLIDPLLEDIKREFLPDSRFSVYFKSIERLGGTNDASIKIYSESEKNTAIKTLEAKLFGEKLQSPQNATLPDDYVCYASRPNSLVIRANGSVGKCTVALSDERNNIGTLRTDGRLDLIPGRFAPWVRGIQTLDPDVLGCPLVSLPTSDEIATNLQTKALAV	not soluble
SEKVNQTFFLSHGSPTLSIDDSLEARQFFKSWTQKVLPQKPKSILVISAHWDTKFPSVNTVLRNNTIHDFSGFPDPMYKLKYEAPGAIELGKRVKELLMKEGGMKRVDEDTKRGLDHGAWVPLMLMYPEADIPICQLSVQSNQNGSYHYNMGKALASLKDEGVLIIGSGSATHNLRKLDFNITDGSPVPWALEFDHWLRDSLLQGRYGDVNEWEEKAPNAKMAHPWPEHLYPLHVVMGAAGGDAKAEQIHTSWQLGTLSYSSYSFTSSL	soluble
MSLDIRRANSADLNALNALEQQLFDGDRISPRQMKRFLHSDHAALFVADAGDQLAGYALLLFHQGTQLSRLYSIAVKPEFRGQRIAQSLVEQCERAALDQGSTTLRLEVREDNTAALKLYEKMGYKTLKLLIHYYDDLCDGRRMQKRLTPQESKVLLPMPLYVQTTPFTCGAACLLMSFACLDKTFEPSRTQEMQLWREATTIFMAAGHGGCSGQGLALAAARRGYHVELWNQSRSTPFIDSVRDPNKKQIIELVHQDFCQQLAEQDVSMIDAPPSQAQLEEWVRKGACVLLLISTYRFDGKKEPHWIVLSGLSDKFFFFHDPHAESEEHVSGSGYIPVGKAALSQIIGFGKQKQIACVVITPRLEGHHHHHH	soluble
SADHDLFRETVYAESLDEALERYSVDTVGDSELATLLPHIEKTFGFPTWAQINEALDTYPDREFVNTVTELLSTANPESLVAAVELMVASARSTTLREELDHEVVLGEYIRSRPNFAEGVRAVLVDKDRNADFTPATTGEVDVTPMRKLLKN	not soluble
